- system-name: BRD4(1,2) (Homo sapiens (Human), UniProt O60885)
- test-details: HTRF binding of compounds on BRD4 (D1+D2)
- condition-details: read-out: IC50 against BRD4(1,2)
Quick rule for you: IC50 under 10 nM gets fulfilled, anything else gets not fulfilled.

>  <test-smiles>
[2H]C([2H])([2H])n1cc(-c2cc(S(C)(=O)=O)c(F)cc2N2CCC3(CC2)CC3(F)F)c2cc[nH]c2c1=O

>  <class-assignment>
not fulfilled

$$$$
>  <test-smiles>
[2H]C([2H])([2H])n1cc(-c2cc(S(N)(=O)=O)ccc2N2CCC3(CC2)CC3(F)F)c2cc[nH]c2c1=O

>  <class-assignment>
fulfilled

$$$$
>  <test-smiles>
[2H]C([2H])([2H])n1cc(-c2cc(S(=O)(=O)N3CC[C@H](O)C3)ccc2N2CCC3(CC2)CC3(F)F)c2cc[nH]c2c1=O

>  <class-assignment>
fulfilled

$$$$
>  <test-smiles>
CCS(=O)(=O)Nc1ccc(N2CCC3(CC2)CC3(F)F)c(-c2cn(C)c(=O)c3[nH]ccc23)c1

>  <class-assignment>
not fulfilled

$$$$
>  <test-smiles>
[2H]C([2H])([2H])NS(=O)(=O)c1cnc(N2CCC3(CC2)CC3(F)F)c(-c2cn(C([2H])([2H])[2H])c(=O)c3[nH]ccc23)c1

>  <class-assignment>
fulfilled

$$$$
>  <test-smiles>
[2H]C([2H])([2H])n1cc(-c2cc(S(=O)(=O)CC)ccc2N2CCC3(CC2)CC3(F)F)c2cc[nH]c2c1=O

>  <class-assignment>
fulfilled

$$$$

###

- Test system: BT474 cells
- test-details: Inhibition of proliferation of BT474 cells (CCK-8)
- Assay type: cell-based, human
- condition-details: Homo sapiens, BT-474, 144 h, 6 days, CCK-8
- Procedure: • BT474 cell line (Cell Bank of Chinese Academy of Sciences, TCHu143) • FBS (Gibco, Cat. No. 10099-141) • 0.01M PBS (Biosharp, Cat. No. 162262) • RIPM1640 (Hyclone, Cat. No. 308090.01) • Penicillin-Streptomycin (Hyclone, Cat. No. SV30010) • Cell counting kit-8 (Signalway Antibody, Cat. No. CP002) • DMSO (Sigma, Cat. No. D5879) • Centrifuge Tube, 15 ml (Excell Bio, Cat. No. CS015-0001) • Cell Culture Dish (Excell Bio, Cat. No. CS016-0128) • 96-well cell culture cluster (Corning, Cat. No. 3599) 3. […]
value-kind: IC50 (µM)

>  <test-smiles>
[2H]C([2H])([2H])n1cc(-c2cc(NS(=O)(=O)CC)ccc2N2CCC3(CC2)CC3)c2cc[nH]c2c1=O

>  <unit-annotation>
µM

>  <reported-measurement>
0.33

$$$$
>  <test-smiles>
[2H]C([2H])([2H])n1cc(-c2cc(S(=O)(=O)CC)ccc2N2CCC3(CC3)C2)c2cc[nH]c2c1=O

>  <unit-annotation>
µM

>  <reported-measurement>
0.13

$$$$

###

Some compounds, each annotated with its measured IC50.
- system-name: BRD4(1,2) (Homo sapiens (Human), UniProt O60885)
- test-details: HTRF binding of compounds on BRD4 (D1+D2)
- condition-details: read-out: IC50 against BRD4(1,2)
value-kind: IC50 (nM)

>  <test-smiles>
[2H]C([2H])([2H])n1cc(-c2cc(S(=O)(=O)N3CC[C@@H](O)C3)cnc2N2CCC3(CC2)CC3)c2cc[nH]c2c1=O

>  <system-name>
BRD4(1,2) (Homo sapiens (Human), UniProt O60885)

>  <unit-annotation>
nM

>  <reported-measurement>
9.9

$$$$
>  <test-smiles>
[2H]C([2H])([2H])n1cc(-c2cc(S(=O)(=O)N3C[C@H](O)C[C@H]3C(=O)O)ccc2N2CCC3(CC2)CC3(F)F)c2cc[nH]c2c1=O

>  <system-name>
BRD4(1,2) (Homo sapiens (Human), UniProt O60885)

>  <unit-annotation>
nM

>  <reported-measurement>
680

$$$$
>  <test-smiles>
[2H]C([2H])([2H])n1cc(-c2cc(S(=O)(=O)NC)ccc2N2CCC3(CC2)CC3)c2cc[nH]c2c1=O

>  <system-name>
BRD4(1,2) (Homo sapiens (Human), UniProt O60885)

>  <unit-annotation>
nM

>  <reported-measurement>
5.1

$$$$
>  <test-smiles>
[2H]C([2H])([2H])n1cc(-c2cc(NS(=O)(=O)CC)ccc2N2CCC3(CC2)CC3)c2cc[nH]c2c1=O

>  <system-name>
BRD4(1,2) (Homo sapiens (Human), UniProt O60885)

>  <unit-annotation>
nM

>  <reported-measurement>
14

$$$$
>  <test-smiles>
[2H]C([2H])([2H])n1cc(-c2cc(S(=O)(=O)C(C)(C)C(=O)O)ccc2N2CCC3(CC2)CC3(F)F)c2cc[nH]c2c1=O

>  <system-name>
BRD4(1,2) (Homo sapiens (Human), UniProt O60885)

>  <unit-annotation>
nM

>  <reported-measurement>
14

$$$$
>  <test-smiles>
[2H]C([2H])([2H])n1cc(-c2cc(S(=O)(=O)N(C)C)ccc2N2CCC3(CC2)CC3(F)F)c2cc[nH]c2c1=O

>  <system-name>
BRD4(1,2) (Homo sapiens (Human), UniProt O60885)

>  <unit-annotation>
nM

>  <reported-measurement>
10

$$$$

###

The following molecules are listed with their measured pIC50 values.
- system-name: BRDT(D1) (Homo sapiens (Human), UniProt Q58F21)
- test-details: HTRF binding of compounds on BRDT (D1)
- condition-details: read-out: IC50 against BRDT(D1)
pIC50: −log10 of the molar value.

>  <test-smiles>
[2H]C([2H])([2H])n1cc(-c2cc(S(=O)(=O)N3CC[C@@H](O)C3)ccc2N2CCC3(CC2)CC3(F)F)c2cc[nH]c2c1=O

>  <pIC50>
7.68

$$$$
>  <test-smiles>
[2H]C([2H])([2H])n1cc(-c2cc(S(C)(=O)=O)c(F)cc2N2CCC3(CC2)CC3(F)F)c2cc[nH]c2c1=O

>  <pIC50>
7.40

$$$$
>  <test-smiles>
[2H]C([2H])([2H])n1cc(-c2cc(S(=O)(=O)CC)ccc2N2CCC3(CC2)CC3(F)F)c2cc[nH]c2c1=O

>  <pIC50>
7.82

$$$$

###

- system-name: BRD3(1,2) (Homo sapiens (Human))
- Sequence (Q15059 29-417): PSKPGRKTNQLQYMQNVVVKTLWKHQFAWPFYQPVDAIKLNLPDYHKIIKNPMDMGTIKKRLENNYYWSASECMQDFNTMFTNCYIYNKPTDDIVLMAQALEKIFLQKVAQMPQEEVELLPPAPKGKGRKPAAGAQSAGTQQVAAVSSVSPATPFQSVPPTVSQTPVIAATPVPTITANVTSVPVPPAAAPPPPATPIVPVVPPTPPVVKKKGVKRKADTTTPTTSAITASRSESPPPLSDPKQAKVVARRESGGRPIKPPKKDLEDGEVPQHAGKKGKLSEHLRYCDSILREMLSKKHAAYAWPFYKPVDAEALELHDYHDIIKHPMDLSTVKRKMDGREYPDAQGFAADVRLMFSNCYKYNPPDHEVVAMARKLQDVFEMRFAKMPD
- test-details: AlphaScreen binding of compounds on BRD3 (D1+D2)
- condition-details: read-out: IC50 against BRD3(1,2)
Under this convention, t denotes IC50 strictly below 5 nM and f denotes IC50 at or above 5 nM.

>  <compound>
[2H]C([2H])([2H])n1cc(-c2cc(NS(=O)(=O)CC)ccc2N2CCC3(CC2)CC3)c2cc[nH]c2c1=O [Compound 41]

>  <class-assignment>
f

$$$$
>  <compound>
[2H]C([2H])([2H])NS(=O)(=O)c1cnc(N2CCC3(CC2)CC3(F)F)c(-c2cn(C([2H])([2H])[2H])c(=O)c3[nH]ccc23)c1 [Compound 213]

>  <class-assignment>
t

$$$$
>  <compound>
[2H]C([2H])([2H])n1cc(-c2cc(S(=O)(=O)C(C)(C)C(=O)O)ccc2N2CCC3(CC2)CC3(F)F)c2cc[nH]c2c1=O [Compound 239]

>  <class-assignment>
f

$$$$
>  <compound>
[2H]C([2H])([2H])n1cc(-c2cc(S(C)(=O)=O)c(F)cc2N2CCC3(CC2)CC3(F)F)c2cc[nH]c2c1=O [Compound 219]

>  <class-assignment>
f

$$$$
>  <compound>
[2H]C([2H])([2H])n1cc(-c2cc(S(=O)(=O)N3C[C@H](O)C[C@H]3C(=O)O)ccc2N2CCC3(CC2)CC3(F)F)c2cc[nH]c2c1=O [Compound 252]

>  <class-assignment>
f

$$$$

###

- system-name: BRD4(1,2) (Homo sapiens (Human), UniProt O60885)
- test-details: HTRF binding of compounds on BRD4 (D1+D2)
- condition-details: read-out: IC50 against BRD4(1,2)
- Procedure: Homogeneous time-resolved fluorescence technology (HTRF) was used to determine the binding effect of compounds on BRD4 (D1+D2) and BRDT (D1) proteins, as well as AlphaScreen method was used to detect the binding effect of compounds on BRD2 (D1+D2) and BRD3 (D1+D2) proteins. […] 5. Steps for Homogeneous Time-Resolved Fluorescence Detection: […] The experimental data were recorded in an Excel file, and equation (1) was used to obtain the inhibition rate. […]
Entries annotated with measured IC50
value-kind: IC50 (nM)

>  <test-smiles>
[2H]C([2H])([2H])n1cc(-c2cc(S(=O)(=O)N3CC[C@H](O)C3)cnc2N2CCC3(CC2)CC3)c2cc[nH]c2c1=O

>  <reported-measurement>
8.9

$$$$
>  <test-smiles>
[2H]C([2H])([2H])n1cc(-c2cc(S(=O)(=O)CC)cnc2N2CCC3(CC2)CC3(F)F)c2cc[nH]c2c1=O

>  <reported-measurement>
5.3

$$$$
>  <test-smiles>
[2H]C([2H])([2H])n1cc(-c2cc(S(C)(=O)=O)ccc2N2CCC3(CC2)CC3)c2cc[nH]c2c1=O

>  <reported-measurement>
7.1

$$$$
>  <test-smiles>
[2H]C([2H])([2H])n1cc(-c2cc(S(=O)(=O)NC)cnc2N2CCC3(CC2)CC3(F)F)c2cc[nH]c2c1=O

>  <reported-measurement>
4.3

$$$$
>  <test-smiles>
[2H]C([2H])([2H])n1cc(-c2cc(S(C)(=O)=O)ccc2N2CCC3(CC2)CC3(F)F)c2cc[nH]c2c1=O

>  <reported-measurement>
6.9

$$$$
>  <test-smiles>
[2H]C([2H])([2H])n1cc(-c2cc(S(=O)(=O)N3CC[C@@H](O)C3)ccc2N2CCC3(CC2)CC3(F)F)c2cc[nH]c2c1=O

>  <reported-measurement>
6.4

$$$$

Entry source: patent US12162878B2
